Across several studies, molecules have been characterized by their IC50 on Autotaxin (Homo sapiens, UniProt Q13822); a selection follows.

Example cases with answers are listed next.
Problem: Kindly state the measured IC50 obtained for CC(=O)N1CC(CN2C(=O)N(C)C(=O)C23CCN(C(=O)[C@H](NC(=O)c2cc(C(F)(F)F)ccc2F)C(C)C)CC3)C1 with Autotaxin (Homo sapiens, UniProt Q13822).
Solution: ≥ 1000 nM

Problem: Kindly state the measured IC50 obtained for CC(C)[C@@H](NC(=O)c1cc(OC(F)(F)F)ccc1F)C(=O)N1CCC(C)(Nc2ccc(S(C)(=O)=O)cc2)CC1 with Autotaxin (Homo sapiens, UniProt Q13822).
Solution: 10 to 100 nM

Problem: Kindly state the measured IC50 obtained for CCCCCC1CN(Cc2cc(C)cc(C(=O)OC)c2)C(=O)c2cc(-c3ccc(Cl)cc3)nn21 (stereo not shown) with Autotaxin (Homo sapiens, UniProt Q13822).
Solution: ≥ 1000 nM

Problem: Kindly state the measured IC50 obtained for CC[C@H]1CC[C@@H](Oc2ccc3nc(NC4C5CCCC4CC(C(=O)O)C5)ccc3c2Cl)CC1 (stereo partly shown) with Autotaxin (Homo sapiens, UniProt Q13822).
Solution: ≤ 100 nM

Problem: Kindly state the measured IC50 obtained for Cc1c(Sc2cccc(C(=O)O)c2F)c2ccc(Cl)c(F)c2n1CC(=O)N1CC(C#N)C1 with Autotaxin (Homo sapiens, UniProt Q13822).
Solution: ≤ 500 nM

Problem: Kindly state the measured IC50 obtained for CC(=O)Nc1cc(OC(F)(F)F)ccc1-c1cc2n(n1)[C@@H](C)CN(Cc1ccc(C#N)cc1)C2=O with Autotaxin (Homo sapiens, UniProt Q13822).
Solution: < 10 nM

As a next step, examine the molecule that follows.
Problem: Kindly state the measured IC50 obtained for O=C(O)C1CCCC(C2CN(Cc3ccc4c(C(F)(F)F)c(O[C@H]5CC[C@@H](C(F)(F)F)CC5)ccc4c3)C2)C1 (relative stereo) with Autotaxin (Homo sapiens, UniProt Q13822).
Solution: ≤ 500 nM
